compounds and their reported MIC
Tested on: M. tuberculosis H37Rv (ATCC 27294)
EXPERIMENT DESCRIPTION: Anti-Mycobacterium activity, microplate Alamar Blue Assay (MABA)
Assay type: cell-based, Mycobacterium tuberculosis
MEASUREMENT SETUP: Mycobacterium tuberculosis, H37Rv strain, minimum concentration achieving 90% inhibition

{"columns": ["SMI", "MIC"],
 "data": [
  ["Cc1ccc(/C=N/NC(=O)c2ccc(O)cc2)cc1", "98.3 µg/mL"],
  ["COC(=O)c1ccc(/C=N/NC(=O)c2ccc(O)cc2)cc1", "< 50 µg/mL"],
  ["O=C(N/N=C/c1ccccc1O)c1ccc(O)cc1", "< 50 µg/mL"],
  ["O=C(N/N=C/c1ccc2ccccc2c1)c1ccc(O)cc1", "> 100 µg/mL"],
  ["O=C(N/N=C/c1ccc(F)cc1)c1ccc(O)cc1", "> 100 µg/mL"],
  ["COc1ccc(/C=N/NC(=O)c2ccc(O)cc2)cc1", "> 100 µg/mL"]
]}

Each recorded value in this set is attributed to paper PMC12114619.
